Where these numbers come from: patent US12358915B2

biological target: METTL3/14 (Homo sapiens, UniProt Q86U44); construct: The enzyme used was full-length his-tagged METTL3; His; made in house; test: METTL3/14 methyltransferase assay (METTL3_14 RFMS, RapidFire mass spectrometry); type: biochemical; settings: 5 nM METTL3/14, 0.2 μM RNA substrate, 0.5 μM SAM; lower limit of the assay IC50=5 nM; Compounds 1-62; read-out: METTL3_14 RFMS IC50;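 note: recombinant His-tagged METTL3 with FLAG-tagged METTL14 from baculovirus, SAH product quantified by mass spectrometry against isotope-labelled internal standards, 60 min at room temperature, scaled between no-RNA and DMSO-only wells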
Sequence (Q86U44 whole entry): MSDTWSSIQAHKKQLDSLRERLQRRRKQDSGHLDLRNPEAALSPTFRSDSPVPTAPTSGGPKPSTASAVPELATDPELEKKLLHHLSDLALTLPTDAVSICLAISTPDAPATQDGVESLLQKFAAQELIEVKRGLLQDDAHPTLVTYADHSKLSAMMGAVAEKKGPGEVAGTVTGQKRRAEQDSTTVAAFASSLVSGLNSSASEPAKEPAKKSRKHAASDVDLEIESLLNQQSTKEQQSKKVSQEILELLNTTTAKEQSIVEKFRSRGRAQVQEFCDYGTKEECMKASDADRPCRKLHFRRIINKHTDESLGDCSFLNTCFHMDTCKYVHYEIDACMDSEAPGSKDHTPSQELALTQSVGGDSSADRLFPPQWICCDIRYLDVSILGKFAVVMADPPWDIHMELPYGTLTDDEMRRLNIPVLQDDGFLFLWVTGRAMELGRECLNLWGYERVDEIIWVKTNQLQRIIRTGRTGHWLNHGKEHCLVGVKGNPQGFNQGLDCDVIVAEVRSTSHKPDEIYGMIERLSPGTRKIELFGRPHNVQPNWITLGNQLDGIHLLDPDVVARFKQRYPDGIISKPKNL
Sequence (Q9HCE5 whole entry partner): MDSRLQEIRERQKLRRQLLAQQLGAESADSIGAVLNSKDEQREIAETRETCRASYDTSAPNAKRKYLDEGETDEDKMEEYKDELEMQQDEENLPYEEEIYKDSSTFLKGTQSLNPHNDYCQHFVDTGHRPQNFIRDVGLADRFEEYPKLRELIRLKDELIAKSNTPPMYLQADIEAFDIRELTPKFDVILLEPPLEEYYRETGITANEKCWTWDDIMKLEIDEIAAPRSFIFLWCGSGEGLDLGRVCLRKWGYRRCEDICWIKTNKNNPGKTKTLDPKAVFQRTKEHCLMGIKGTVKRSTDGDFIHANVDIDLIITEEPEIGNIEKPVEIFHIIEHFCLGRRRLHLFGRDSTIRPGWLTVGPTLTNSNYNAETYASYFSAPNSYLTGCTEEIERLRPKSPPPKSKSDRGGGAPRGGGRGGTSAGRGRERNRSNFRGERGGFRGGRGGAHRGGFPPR
Assay metric: IC50 (µM)

I = O=C(NCc1cn2ccc(Br)cc2n1)c1cccc2[nH]ncc12
II = Cc1ccc2nc(CNC(=O)c3cc(Br)cc4[nH]ncc34)cn2c1
III = O=C(NCc1cn2cc(CN3CCNCC3)ccc2n1)c1cccc2[nH]ncc12
Q) Sort the items above by IC50, starting with the smallest value. Answer by naming the labels in the order asked.
A) II, III, I
(II: 1.61 µM, III: 5.44 µM, I: 9.84 µM)
